Values were extracted from patent US20190135793A1.

test-target: KDM5B (Homo sapiens, UniProt Q9UGL1)
Construct: Full length of KDM5B and KDM4C protein were purchased from Active Motif; purchased Active Motif 31832
Sequence (Q9UGL1 whole entry): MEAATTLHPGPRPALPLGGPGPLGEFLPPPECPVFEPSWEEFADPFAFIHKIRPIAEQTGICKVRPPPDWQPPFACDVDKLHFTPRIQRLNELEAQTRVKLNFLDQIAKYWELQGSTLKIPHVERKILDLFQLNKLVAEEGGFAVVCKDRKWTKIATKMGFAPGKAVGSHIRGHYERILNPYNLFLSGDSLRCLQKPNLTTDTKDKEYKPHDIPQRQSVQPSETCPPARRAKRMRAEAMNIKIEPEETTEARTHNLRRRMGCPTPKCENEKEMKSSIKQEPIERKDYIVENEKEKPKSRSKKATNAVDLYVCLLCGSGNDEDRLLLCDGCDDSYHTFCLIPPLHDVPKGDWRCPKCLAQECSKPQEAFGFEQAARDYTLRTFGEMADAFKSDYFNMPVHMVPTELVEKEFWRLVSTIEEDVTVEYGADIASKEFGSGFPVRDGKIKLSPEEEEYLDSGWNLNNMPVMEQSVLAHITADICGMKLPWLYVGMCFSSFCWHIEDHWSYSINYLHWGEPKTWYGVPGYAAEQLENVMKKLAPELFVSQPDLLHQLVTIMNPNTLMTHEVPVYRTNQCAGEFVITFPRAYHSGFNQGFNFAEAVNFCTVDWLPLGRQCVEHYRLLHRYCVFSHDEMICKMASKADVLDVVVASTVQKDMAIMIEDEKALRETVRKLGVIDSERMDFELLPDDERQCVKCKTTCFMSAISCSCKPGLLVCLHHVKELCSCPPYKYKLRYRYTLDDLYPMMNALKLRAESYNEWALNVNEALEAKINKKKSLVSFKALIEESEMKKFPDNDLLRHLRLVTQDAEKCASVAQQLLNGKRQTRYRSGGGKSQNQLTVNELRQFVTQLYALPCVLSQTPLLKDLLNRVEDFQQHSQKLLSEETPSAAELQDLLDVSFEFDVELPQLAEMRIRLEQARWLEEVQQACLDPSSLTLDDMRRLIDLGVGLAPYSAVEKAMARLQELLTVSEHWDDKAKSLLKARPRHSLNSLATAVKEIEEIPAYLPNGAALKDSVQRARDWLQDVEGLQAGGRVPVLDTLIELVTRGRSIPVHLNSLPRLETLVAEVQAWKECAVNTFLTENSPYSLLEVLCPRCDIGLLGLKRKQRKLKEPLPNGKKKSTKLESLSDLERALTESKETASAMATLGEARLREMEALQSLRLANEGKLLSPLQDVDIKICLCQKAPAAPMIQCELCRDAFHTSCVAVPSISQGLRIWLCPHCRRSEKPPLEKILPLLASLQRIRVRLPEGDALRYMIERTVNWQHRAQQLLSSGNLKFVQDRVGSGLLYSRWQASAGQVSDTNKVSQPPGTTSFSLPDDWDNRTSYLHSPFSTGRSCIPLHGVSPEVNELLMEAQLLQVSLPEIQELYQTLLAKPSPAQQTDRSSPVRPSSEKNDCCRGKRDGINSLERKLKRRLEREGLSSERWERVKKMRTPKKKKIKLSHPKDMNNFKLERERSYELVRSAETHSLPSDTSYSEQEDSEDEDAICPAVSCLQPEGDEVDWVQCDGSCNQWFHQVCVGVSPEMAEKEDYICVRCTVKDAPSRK
method-summary: biochemical
particulars: AlphaScreen; full length KDM5B 0.5 nM; biotinylated H3K4Me3 peptide 3 nM; 25 minutes at room temperature; read-out: KDM5B (IC50)
parameter: IC50 (µM)

• CC(C)c1c(O)nc(-n2ccnc2)nc1-c1cnn(CC(=O)NCCN)c1 [Example 94] = 0.006
• CCCCCCOc1nc(-n2ccnc2)nc(O)c1C(C)C [Example 140] = 0.341
• CC(C)c1c(O)nc(-n2ccnc2-c2ncccn2)nc1Cl [Example 88] = 0.563

P. CC(C)c1c(O)nc(-n2ccnc2)nc1-c1cccc(S(C)(=O)=O)c1 [Example 72]
Q. CC(C)c1cnc(-c2cncs2)nc1O [Example 157]
## Task Between P and Q , whose measured IC50 reads higher? Kindly give the label for the entry you pick.
## Result Q
(Q: 0.805 µM, P: 0.024 µM)
